Target: Protein kinase C iota type (Homo sapiens) (UniProt P41743)
Sequence (whole entry): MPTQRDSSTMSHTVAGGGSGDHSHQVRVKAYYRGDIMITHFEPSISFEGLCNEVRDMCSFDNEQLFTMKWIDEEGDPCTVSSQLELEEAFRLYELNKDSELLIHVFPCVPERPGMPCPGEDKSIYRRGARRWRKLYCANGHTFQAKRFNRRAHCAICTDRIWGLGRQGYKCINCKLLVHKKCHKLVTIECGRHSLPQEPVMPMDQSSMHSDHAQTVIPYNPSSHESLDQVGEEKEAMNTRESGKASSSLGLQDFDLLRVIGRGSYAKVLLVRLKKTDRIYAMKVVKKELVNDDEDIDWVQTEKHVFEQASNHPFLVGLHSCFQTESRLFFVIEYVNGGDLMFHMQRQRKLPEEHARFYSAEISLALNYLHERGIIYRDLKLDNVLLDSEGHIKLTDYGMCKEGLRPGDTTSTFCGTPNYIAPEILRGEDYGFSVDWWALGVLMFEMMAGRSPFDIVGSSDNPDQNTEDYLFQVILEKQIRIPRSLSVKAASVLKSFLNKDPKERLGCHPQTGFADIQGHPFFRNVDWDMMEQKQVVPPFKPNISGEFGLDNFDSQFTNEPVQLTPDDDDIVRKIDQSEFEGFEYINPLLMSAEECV
Details: at 10 µM
assay readout: residual activity (%)
A number alone suffices; assume %.

Q: GET /values?readout=residual activity&item= `O=c1cc(N2CCNCC2)oc2c(-c3ccccc3)cccc12`
Ans: 71

Q: GET /values?readout=residual activity&item= `CCCCc1c(-c2ccc(O)cc2)[nH]c2nccnc12`
Ans: 83

Q: GET /values?readout=residual activity&item= `COc1ccc(Cl)cc1NC(=O)Nc1cc(C)nc2ccccc12`
Ans: 86

Q: GET /values?readout=residual activity&item= `O=c1c(-c2ccc(F)cc2)c(-c2ccncc2)[nH]n1-c1ccc(Cl)cc1`
Ans: 100

Q: GET /values?readout=residual activity&item= `O=c1cc(N2CCOCC2)oc2c1ccc1ccccc12`
Ans: 97

Q: GET /values?readout=residual activity&item= `NC(=O)Nc1sc(-c2ccc(F)cc2)cc1C(N)=O`
Ans: 107

---

target: SRSF protein kinase 2 (Homo sapiens); conditions: at 10 µM
assay readout: residual activity (%)
A number alone suffices; assume %.

input smiles: O=C1NC(=O)c2c1c1c3ccccc3[nH]c1n1cncc21
measured number: 72
//
input smiles: O=C(c1ccccc1)c1ccc(N2CCOCC2)cc1O
measured number: 94
//
input smiles: CCCC(=O)Oc1ccc2[nH]c(C(=O)c3cc4ccccc4[nH]3)cc2c1
measured number: 87
//
input smiles: O=C(Nc1nc2ccccc2n1CCN1CCOCC1)c1cccc([N+](=O)[O-])c1
measured number: 74

Q: GET /values?readout=residual activity&item= `CC(C)(C)c1nc2c3ccc(F)cc3c3c(=O)[nH]ccc3c2[nH]1`
Ans: 73

Q: GET /values?readout=residual activity&item= `Cn1sc(=O)n(Cc2ccccc2)c1=O`
Ans: 76

---

Below is a list of entries, each paired with its recorded residual activity value.
target: Serine/threonine-protein kinase 24 (Homo sapiens); conditions: at 1 µM
A number alone suffices; assume %.

Observe how each entry below is paired with its result.
compound: O=C(CCCc1ccc(-c2ccccc2F)cc1)Nc1ccc(O)cc1
assay readout: residual activity
measured number: 93
--
compound: O=C1NC(=O)C(c2c[nH]c3ccccc23)=C1c1c[nH]c2ccccc12
assay readout: residual activity
measured number: 21
--
compound: CC(C)(C)c1nc2c3ccc(F)cc3c3c(=O)[nH]ccc3c2[nH]1
assay readout: residual activity
measured number: 41
--
compound: O=C(Nc1ccc(Cl)cc1)c1ccccc1NCc1ccncc1
assay readout: residual activity
measured number: 72
--
compound: CCN(CC)CCNC(=O)c1c(C)[nH]c(/C=C2\C(=O)Nc3ccc(Cl)cc32)c1C
assay readout: residual activity
measured number: 8

Q: Recall the recorded residual activity for `Nc1nc(Nc2ccc(S(N)(=O)=O)cc2)nn1C(=O)c1c(F)cccc1F` with Serine/threonine-protein kinase 24 (Homo sapiens) and state it.
Ans: 61

Q: Recall the recorded residual activity for `Fc1ccc(-c2nc3n(c2-c2ccncc2)CCS3)cc1` with Serine/threonine-protein kinase 24 (Homo sapiens) and state it.
Ans: 99

Q: Recall the recorded residual activity for O=C(NC(NC(=S)Nc1ccc(F)c([N+](=O)[O-])c1)C(Cl)(Cl)Cl)C(c1ccccc1)c1ccccc1 (configuration not stated) with Serine/threonine-protein kinase 24 (Homo sapiens) and state it.
Ans: 86

Q: Recall the recorded residual activity for `COc1ccc(-c2cnc3c(-c4ccsc4)cnn3c2)cc1` with Serine/threonine-protein kinase 24 (Homo sapiens) and state it.
Ans: 67

Q: Recall the recorded residual activity for `O=c1cc(N2CCNCC2)oc2c(-c3ccccc3)cccc12` with Serine/threonine-protein kinase 24 (Homo sapiens) and state it.
Ans: 59

Q: Recall the recorded residual activity for `O=C1Cc2c([nH]c3ccc([N+](=O)[O-])cc23)-c2ccccc2N1` with Serine/threonine-protein kinase 24 (Homo sapiens) and state it.
Ans: 51

---

target: MAP kinase-activated protein kinase 2 (Homo sapiens); conditions: at 1 µM
Below is a list of entries, each paired with its recorded residual activity value.
A number alone suffices; assume %.

Observe how each entry below is paired with its result.
compound: COc1cc2c(cc1OC)-c1n[nH]c(Nc3cccc(F)c3)c1C2
residual activity [%]: 75
//
compound: O=C1NC(=O)c2c1c1c3ccccc3[nH]c1n1cncc21
residual activity [%]: 79
//
compound: O=C(c1ccccc1)c1ccc(N2CCOCC2)cc1O
residual activity [%]: 73
//
compound: O=C(c1cc2cc(O)ccc2[nH]1)c1cc2cc(O)ccc2[nH]1
residual activity [%]: 64

Q: GET /values?readout=residual activity&item= `O=C(CCCc1ccc(-c2ccccc2F)cc1)Nc1ccc(O)cc1`
Ans: 95

Q: GET /values?readout=residual activity&item= O=C(NC(NC(=S)Nc1ccc(F)c([N+](=O)[O-])c1)C(Cl)(Cl)Cl)C(c1ccccc1)c1ccccc1 (stereo unspecified)
Ans: 90

Q: GET /values?readout=residual activity&item= `O=C1NC(=O)C(c2cn(CCCn3ccnc3)c3ccccc23)=C1Nc1ccccc1`
Ans: 100

Q: GET /values?readout=residual activity&item= `Nc1ncnc2[nH]nc(Nc3ccc(F)cc3)c12`
Ans: 75

Q: GET /values?readout=residual activity&item= `COc1cc2ncnc(Nc3cccc(Cl)c3)c2cc1OC`
Ans: 108

Q: GET /values?readout=residual activity&item= `Cc1cc(C)c(/C=C2\C(=O)Nc3ccccc32)[nH]1`
Ans: 100

Q: GET /values?readout=residual activity&item= `CC(C)[C@H](CO)Nc1nc(Nc2cc(N)cc(Cl)c2)c2ncn(C(C)C)c2n1`
Ans: 89

---

Below is a list of entries, each paired with its recorded residual activity value.
biological target: Tyrosine-protein kinase BTK (Homo sapiens); conditions: at 1 µM
A number alone suffices; assume %.

Observe how each entry below is paired with its result.
compound: O=C(CCCc1ccc(-c2ccccc2F)cc1)Nc1ccc(O)cc1
system: Tyrosine-protein kinase BTK (Homo sapiens)
assay readout: residual activity
measured number: 106
--
compound: Nc1ncnc2c1cnn2-c1ccccc1
system: Tyrosine-protein kinase BTK (Homo sapiens)
assay readout: residual activity
measured number: 94
--
compound: O=C(O)/C=C/c1cc(Br)c(Br)c(Br)c1Br
system: Tyrosine-protein kinase BTK (Homo sapiens)
assay readout: residual activity
measured number: 102
--
compound: CC(C)(C)n1nc(Cc2cccc3ccccc23)c2c(N)ncnc21
system: Tyrosine-protein kinase BTK (Homo sapiens)
assay readout: residual activity
measured number: 24

Q: GET /values?readout=residual activity&item= `O=c1cc(N2CCOCC2)oc2c1ccc1ccccc12`
Ans: 94

Q: GET /values?readout=residual activity&item= `NC(=O)Nc1sc(-c2ccc(F)cc2)cc1C(N)=O`
Ans: 38

Q: GET /values?readout=residual activity&item= `COc1cc2c(cc1OC)-c1n[nH]c(Nc3cccc(F)c3)c1C2`
Ans: 22

Q: GET /values?readout=residual activity&item= `O=C(c1cc2cc(O)ccc2[nH]1)c1cc2cc(O)ccc2[nH]1`
Ans: 78

Q: GET /values?readout=residual activity&item= `O=C1NC(=O)C(c2c[nH]c3ccccc23)=C1c1c[nH]c2ccccc12`
Ans: 100

Q: GET /values?readout=residual activity&item= `CC(C)[C@H](CO)Nc1nc(Nc2cc(N)cc(Cl)c2)c2ncn(C(C)C)c2n1`
Ans: 48

Q: GET /values?readout=residual activity&item= `CCCC(=O)Oc1ccc2[nH]c(C(=O)c3cc4ccccc4[nH]3)cc2c1`
Ans: 94

Q: GET /values?readout=residual activity&item= CSc1nc(-c2ccc(F)cc2)c(-c2ccnc(NC(C)c3ccccc3)c2)[nH]1 (stereo not drawn)
Ans: 90

Q: GET /values?readout=residual activity&item= `Cn1c2ccccc2c2c3c(c4c5ccccc5n(CCC#N)c4c21)CNC3=O`
Ans: 10
